MIC overview
Tested on: Staphylococcus aureus
Assay: In vitro antimicrobial activity, microplate dilution MIC, Staphylococcus aureus
Type: cell-based
Settings: Staphylococcus aureus; in vitro; 10^5 microorganism/ml; read-out: MIC (minimal inhibitory concentration), SA
Your answer is read as µg/mL, so omit the unit and give the number.

Use the examples below as a reference point.
Cc1cc(-c2c(F)cc3c(=O)c(C(=O)O)cn4c3c2OC[C@@H]4C)cc(C)n1 ... 0.008
Cc1cc(-c2c(F)c(F)c3c(=O)c(C(=O)O)cn4c3c2OC[C@@H]4C)cc(C)n1 ... 0.016
Cc1cc(-c2c(F)cc3c(=O)c(C(=O)O)cn4c3c2SC[C@@H]4C)cc(C)n1 ... 0.004
CC1COc2c(N3CCN(C)CC3)c(F)cc3c(=O)c(C(=O)O)cn1c23 (stereo not drawn) [P, reference compound] ... 0.25

From here, focus on the item given below.
INPUT: Look at this compound and give its reported MIC. CCn1cc(C(=O)O)c(=O)c2cc(F)c(-c3cc(C)nc(C)c3)cc21 [Q, reference compound]
OUTPUT: 0.03

----------
Assay: Serum levels in monkeys after oral dosing
Assay type: in vivo
Settings: monkey, serum, 25 mg/kg oral, read-out: time of maximum concentration (serum)
test readout: Tmax
Reply with the number and its unit after it.

INPUT: Look at this compound and give its reported Tmax. Cc1cc(-c2c(F)cc3c(=O)c(C(=O)O)cn4c3c2OC[C@@H]4C)cc(C)n1 [B]
OUTPUT: 3.5 h

----------
Experiment: Serum levels in monkeys after oral dosing
Type: in vivo
Conditions: monkey, serum, 25 mg/kg oral
test readout: half-life (h)
Your answer is read as h, so omit the unit and give the number.

INPUT: Look at this molecule and give its reported half-life. `Cc1cc(-c2c(F)cc3c(=O)c(C(=O)O)cn4c3c2OC[C@@H]4C)cc(C)n1`
OUTPUT: 16

----------
System: Micrococcus luteus
Assay: In vitro antimicrobial activity, microplate dilution MIC, Micrococcus luteus
Format: cell-based
Settings: 10^5 microorganism/ml, read-out: MIC (minimal inhibitory concentration), ML
MIC overview
Your answer is read as µg/mL, so omit the unit and give the number.

Use the examples below as a reference point.
Cc1cc(-c2c(F)cc3c(=O)c(C(=O)O)cn4c3c2SC[C@@H]4C)cc(C)n1 ... 0.06
Cc1cc(-c2c(F)cc3c(=O)c(C(=O)O)cn4c3c2OC[C@@H]4C)cc(C)n1 ... 0.25
Cc1cc(-c2c(F)c(F)c3c(=O)c(C(=O)O)cn4c3c2OC[C@@H]4C)cc(C)n1 ... 1

INPUT: Look at this molecule and give its reported MIC. `CC[C@H]1COc2c(-c3cc(C)nc(C)c3)c(F)cc3c(=O)c(C(=O)O)cn1c23`
OUTPUT: 0.5

INPUT: Look at this molecule and give its reported MIC. CCn1cc(C(=O)O)c(=O)c2cc(F)c(-c3cc(C)nc(C)c3)cc21 [Q, reference compound]
OUTPUT: 0.5

INPUT: Look at this molecule and give its reported MIC. CC1COc2c(N3CCN(C)CC3)c(F)cc3c(=O)c(C(=O)O)cn1c23 (stereo not drawn) [P, reference compound]
OUTPUT: 2
